The measured values listed here are drawn from patent US20160052926A1.

Recorded below: IC50, system FGFR3 kinase (Homo sapiens).
Report the figure in µM without appending any unit label.

Recorded IC50 (compound CCN1CCN(c2cccc(Nc3ncc(CCc4cc(OC)cc(C(=O)NOC)c4)cn3)c2)CC1 ): 0.004

Recorded IC50 (compound CNC(=O)c1cc(CCc2cnc(Nc3cnn([C@@H]4CCOC4)c3)nc2)c(F)c(OC)c1 ): 0.013

Recorded IC50 (compound CNC(=O)c1cc(CCc2cnc(Nc3cnn([C@@H]4CCNC4)c3)nc2)c(F)c(OC)c1 ): 0.012

---
Recorded IC50 (compound CNC(=O)c1cc(COc2cnc(Nc3ccc(N4CCNCC4)cc3)nc2)c(F)c(OC)c1 ): 0.01

###

# target: FGFR3 kinase (Homo sapiens)
# assayNotes: Z-Lyte Kinase Assay of FGFR3
# Assay type: biochemical
# Experimental: Z-Lyte Kinase Assay of FGFR3 The final concentrations are 1, 0.33, 0.11, 0.037, 0.012, 0.004, 0.0014, 0.00046 μM, and the final concentration of DMSO is 2%. • 3) Kinase/Peptide Mixture (P/K solution): Prepare Kinase/Peptide Mixture by diluting the kinase to 0.7 μg/ml and the Z-LYTE™ Tyr 4 peptide to 4 μM in 1.33× Kinase Buffer. […] • determined with add-in software for Microsoft Excel, XLfit™ (version 2.0) from ID Business Solutions (Guildford, UK)
measuredAttribute: IC50 (nM)
Report the figure in nM without appending any unit label.

Some solved cases for reference:
Recorded IC50 (molecule CONC(=O)c1cc(CCc2cnc(Nc3cnn(CCO)c3)nc2)cc(OC)c1 [Compound 108] ): 10

Recorded IC50 (molecule CNC(=O)c1cc(CCc2cnc(Nc3cnn(CC(C)C)c3)nc2)c(F)c(OC)c1 [Compound 118] ): 34

Recorded IC50 (molecule CNC(=O)c1cc(CCc2ccc(Nc3cnn(C)c3)nc2)c(F)c(OC)c1 [Compound 103] ): 47

---
Recorded IC50 (molecule CCn1cc(Nc2ncc(CCc3cc(C(=O)NC)cc(OC)c3F)cn2)c(C)n1 [Compound 111] ): 61

Recorded IC50 (molecule CNC(=O)c1cc(CCc2cnc(Nc3cnn(CCOC)c3)nc2)c(Cl)c(OC)c1 [Compound 127] ): 9

Recorded IC50 (molecule CCn1cc(Nc2ncc(/C=C/c3c(F)c(C(=O)NC)cc(OC)c3Cl)cn2)cn1 [Compound 2] ): 17

Recorded IC50 (molecule CNC(=O)c1cc(CCc2cnc(Nc3ccn(C)c(=O)c3)nc2)c(F)c(OC)c1 [Compound 93] ): 11

Recorded IC50 (molecule CNC(=O)c1cc(CCc2cnc(Nc3ccn4cnnc4c3)nc2)c(F)c(OC)c1 [Compound 68] ): 25

###

# target: Recombinant human FGFR1 (Homo sapiens, UniProt P11362)
# Sequence (P11362 22-822): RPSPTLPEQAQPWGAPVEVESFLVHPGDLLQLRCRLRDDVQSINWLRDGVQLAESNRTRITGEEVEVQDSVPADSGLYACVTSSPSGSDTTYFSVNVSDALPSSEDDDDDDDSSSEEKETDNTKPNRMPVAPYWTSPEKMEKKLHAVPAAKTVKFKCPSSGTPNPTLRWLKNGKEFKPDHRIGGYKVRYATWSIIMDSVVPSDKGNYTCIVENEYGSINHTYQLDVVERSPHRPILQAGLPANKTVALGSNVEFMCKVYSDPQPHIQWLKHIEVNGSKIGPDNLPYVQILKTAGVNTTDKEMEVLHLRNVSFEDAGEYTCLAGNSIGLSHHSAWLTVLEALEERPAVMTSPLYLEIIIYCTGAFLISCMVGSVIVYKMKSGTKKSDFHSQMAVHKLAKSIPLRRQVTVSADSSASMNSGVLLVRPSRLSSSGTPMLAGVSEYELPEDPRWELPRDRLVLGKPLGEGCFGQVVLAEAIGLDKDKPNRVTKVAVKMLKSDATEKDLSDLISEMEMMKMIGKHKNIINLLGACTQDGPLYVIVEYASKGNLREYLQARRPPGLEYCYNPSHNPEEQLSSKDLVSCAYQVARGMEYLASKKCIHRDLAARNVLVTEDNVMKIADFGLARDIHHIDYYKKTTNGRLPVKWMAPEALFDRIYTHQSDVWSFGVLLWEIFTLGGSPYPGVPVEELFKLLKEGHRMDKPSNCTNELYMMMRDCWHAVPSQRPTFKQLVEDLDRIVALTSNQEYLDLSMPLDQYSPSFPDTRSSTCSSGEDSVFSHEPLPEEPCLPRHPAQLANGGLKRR
# assayNotes: Transcreener Kinase Assay of FGFR1
# Assay type: biochemical
# conditionParameters: read-out: FGFR1 (FP) IC50
measuredAttribute: pIC50
Reminder that pIC50 means the negative base-10 logarithm of the concentration expressed in mol/L.

Recorded pIC50 (compound CCN(CC)CCCn1cc(Nc2ncc(CCc3cc(C(=O)NC)cc(OC)c3Cl)cn2)cn1 ): 7.82

###

Measured pIC50, listed per entry.
# target: FGFR3 kinase (Homo sapiens, UniProt P22607)
# Sequence (P22607 23-806): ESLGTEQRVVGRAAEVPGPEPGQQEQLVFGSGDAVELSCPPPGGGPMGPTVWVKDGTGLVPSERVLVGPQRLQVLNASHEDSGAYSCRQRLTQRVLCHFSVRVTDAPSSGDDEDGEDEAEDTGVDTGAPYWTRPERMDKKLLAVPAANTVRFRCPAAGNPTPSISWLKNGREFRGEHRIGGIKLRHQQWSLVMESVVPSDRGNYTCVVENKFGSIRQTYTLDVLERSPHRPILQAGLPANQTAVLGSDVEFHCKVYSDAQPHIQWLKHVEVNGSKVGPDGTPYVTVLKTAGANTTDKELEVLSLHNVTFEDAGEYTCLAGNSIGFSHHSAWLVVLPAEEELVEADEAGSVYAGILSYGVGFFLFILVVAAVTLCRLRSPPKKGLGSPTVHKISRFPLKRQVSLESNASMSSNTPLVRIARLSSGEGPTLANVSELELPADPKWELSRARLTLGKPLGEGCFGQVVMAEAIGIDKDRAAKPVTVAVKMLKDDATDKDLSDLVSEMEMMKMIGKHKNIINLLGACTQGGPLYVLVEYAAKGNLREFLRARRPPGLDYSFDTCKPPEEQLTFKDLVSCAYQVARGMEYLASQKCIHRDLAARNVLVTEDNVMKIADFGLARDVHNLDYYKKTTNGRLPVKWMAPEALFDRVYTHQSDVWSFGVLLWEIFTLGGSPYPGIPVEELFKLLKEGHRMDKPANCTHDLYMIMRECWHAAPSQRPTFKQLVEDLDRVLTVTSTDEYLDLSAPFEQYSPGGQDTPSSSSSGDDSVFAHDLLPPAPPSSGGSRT
Reminder that pIC50 means the negative base-10 logarithm of the concentration expressed in mol/L.

Some solved cases for reference:
Noted pIC50 for CNC(=O)c1cc(CCc2cnc(Nc3cnn([C@@H]4CCN(C)C4)c3)nc2)c(F)c(OC)c1 [Compound 169] , tested on FGFR3 kinase (Homo sapiens, UniProt P22607): 7.82

Noted pIC50 for CCN(CC)CCn1cc(Nc2ncc(CCc3cc(C(=O)NC)cc(OC)c3F)cn2)cn1 [Compound 136] , tested on FGFR3 kinase (Homo sapiens, UniProt P22607): 7.74

Noted pIC50 for CNC(=O)c1cc(CCc2cnc(Nc3ccc(C)nc3)nc2)c(F)c(OC)c1 [Compound 26] , tested on FGFR3 kinase (Homo sapiens, UniProt P22607): 7.57

Noted pIC50 for CONC(=O)c1cc(CCc2cnc(Nc3ccc(N4C[C@@H](C)N[C@@H](C)C4)c(F)c3)nc2)cc(OC)c1 [Compound 54] , tested on FGFR3 kinase (Homo sapiens, UniProt P22607): 8.22

Noted pIC50 for CNC(=O)c1cc(OC)c(Cl)c(/C=C/c2cnc(Nc3ccc(N4C[C@@H](C)N[C@@H](C)C4)cc3)nc2)c1F [Compound 8] , tested on FGFR3 kinase (Homo sapiens, UniProt P22607): 7.85

---
Noted pIC50 for CNC(=O)c1cc(COc2cnc(Nc3ccc(N4C[C@@H](C)N[C@@H](C)C4)c(C)c3)nc2)c(Cl)c(OC)c1 [Compound 209] , tested on FGFR3 kinase (Homo sapiens, UniProt P22607): 8.15

Noted pIC50 for CNC(=O)c1cc(CCc2cnc(Nc3cnn(CCN4CCOCC4)c3)nc2)c(F)c(OC)c1 [Compound 139] , tested on FGFR3 kinase (Homo sapiens, UniProt P22607): 8.10

###

# target: Recombinant human FGFR1 (Homo sapiens)
# assayNotes: Transcreener Kinase Assay of FGFR1
# Assay type: biochemical
# conditionParameters: read-out: FGFR1 (FP) IC50
Measured pIC50, listed per entry.
Reminder that pIC50 means the negative base-10 logarithm of the concentration expressed in mol/L.

Some solved cases for reference:
Recorded pIC50 (compound CNC(=O)c1cc(CCc2cnc(Nc3cnn(CCO)c3)nc2)c(F)c(OC)c1 ): 7.92

Recorded pIC50 (compound CNC(=O)c1cc(COc2cnc(Nc3ccc(N4C[C@@H](C)N[C@@H](C)C4)cc3)nc2)c(Cl)c(OC)c1 ): 8.30

Recorded pIC50 (compound CCn1cc(Nc2ncc(CCc3cc(C(=O)NC)cc(OC)c3C#N)cn2)cn1 ): 7.16

Recorded pIC50 (compound CCN1CC[C@@H](n2cc(Nc3ncc(CCc4cc(C(=O)NC)cc(OC)c4F)cn3)cn2)C1 [Compound 170] ): 7.00

Recorded pIC50 (compound CCn1cc(Nc2ncc(OCc3cc(C(=O)NC)cc(OC)c3F)cn2)cn1 ): 7.72

Recorded pIC50 (compound CNC(=O)c1cc(CCc2cnc(Nc3ccc(CN4CCOCC4)cc3)nc2)c(F)c(OC)c1 ): 7.96

Recorded pIC50 (compound CNC(=O)c1cc(CCc2cnc(Nc3cnn(CC4CCN(C)CC4)c3)nc2)c(F)c(OC)c1 ): 7.92

Recorded pIC50 (compound CNC(=O)c1cc(CCc2cnc(Nc3cccc(N4CCOCC4)c3)nc2)c(F)c(OC)c1 ): 8.10

---
Recorded pIC50 (compound CONC(=O)c1cc(CCc2cnc(Nc3cnn(C)c3)nc2)cc(OC)c1 ): 8.05

Recorded pIC50 (compound CCN1CCN(c2ccc(Nc3ncc(CCc4cc(C(=O)NC)cc(OC)c4Cl)cn3)cc2)CC1 ): 8.40

Recorded pIC50 (compound CNC(=O)c1cc(CCc2cnc(Nc3cnn(CCCOC)c3)nc2)c(F)c(OC)c1 ): 7.82

Recorded pIC50 (compound CNC(=O)c1cc(CCc2cnc(Nc3ccn4c(COC)nnc4c3)nc2)c(F)c(OC)c1 ): 7.47

Recorded pIC50 (compound CNC(=O)c1cc(CCc2cnc(Nc3cn[nH]c3)nc2)c(F)c(OC)c1 ): 7.92

Recorded pIC50 (compound CNC(=O)c1cc(CCc2cnc(Nc3cnn(C)c3)nc2)c(F)c(OC)c1 ): 7.82

Recorded pIC50 (compound CNC(=O)c1cc(CCc2cnc(Nc3cnn(C4CCC4)c3)nc2)c(Cl)c(OC)c1 ): 8.10

Recorded pIC50 (compound CCN1CCN(c2ccc(Nc3ncc(CCc4cc(C(=O)NOC)cc5occc45)cn3)cc2)CC1 ): 7.89

Recorded pIC50 (compound CCN1CC[C@@H](n2cc(Nc3ncc(CCc4cc(C(=O)NC)cc(OC)c4F)cn3)cn2)C1 [Compound 171] ): 7.37

###

# target: Recombinant human FGFR2 (Homo sapiens)
# Sequence (P21802 22-821): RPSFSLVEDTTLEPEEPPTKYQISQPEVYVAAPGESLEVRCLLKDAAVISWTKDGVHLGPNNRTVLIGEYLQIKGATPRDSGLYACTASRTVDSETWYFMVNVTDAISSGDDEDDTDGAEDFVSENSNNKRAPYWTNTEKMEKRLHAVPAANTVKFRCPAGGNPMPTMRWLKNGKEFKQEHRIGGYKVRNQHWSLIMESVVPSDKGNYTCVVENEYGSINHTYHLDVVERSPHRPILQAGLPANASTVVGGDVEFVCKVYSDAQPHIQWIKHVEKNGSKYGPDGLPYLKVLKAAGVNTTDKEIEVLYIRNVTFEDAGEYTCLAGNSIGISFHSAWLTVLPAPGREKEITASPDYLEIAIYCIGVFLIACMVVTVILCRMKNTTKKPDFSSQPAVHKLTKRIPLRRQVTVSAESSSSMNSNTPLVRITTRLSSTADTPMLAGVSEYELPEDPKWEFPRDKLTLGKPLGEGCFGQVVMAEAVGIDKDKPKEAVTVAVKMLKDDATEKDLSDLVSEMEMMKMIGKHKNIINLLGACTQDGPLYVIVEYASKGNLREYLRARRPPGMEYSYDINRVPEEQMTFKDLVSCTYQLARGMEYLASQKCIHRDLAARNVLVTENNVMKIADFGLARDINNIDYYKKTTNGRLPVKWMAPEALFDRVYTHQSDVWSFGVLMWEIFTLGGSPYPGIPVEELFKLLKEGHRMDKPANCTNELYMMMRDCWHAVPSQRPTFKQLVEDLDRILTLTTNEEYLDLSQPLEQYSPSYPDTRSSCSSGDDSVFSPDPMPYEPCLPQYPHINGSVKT
# assayNotes: Transcreener Kinase Assay of FGFR2
# Type: biochemical
# conditionParameters: read-out: FGFR2 (FP) IC50
Measured IC50, listed per entry.

Recorded IC50 (compound CCn1cc(Nc2ncc(CCc3cc(C(=O)NC)cc(OC)c3C#N)cn2)cn1 ): 56 nM

Recorded IC50 (compound CNC(=O)c1cc(CCc2cnc(Nc3ccc(N4CCNC(C)(C)C4)cc3)nc2)c(Cl)c(OC)c1 ): 6 nM

Recorded IC50 (compound CNC(=O)c1cc(CCc2cnc(Nc3cnn([C@H]4CCNC4)c3)nc2)c(F)c(OC)c1 ): 10 nM

---
Recorded IC50 (compound CCN1CCN(c2ccc(Nc3ncc(CCc4cc(C(=O)NC)cc(OC)c4C)cn3)cc2)CC1 ): 41 nM

Recorded IC50 (compound CNC(=O)c1cc(CCc2cnc(Nc3ccc(C)nc3)nc2)c(F)c(OC)c1 ): 12 nM

Recorded IC50 (compound CNC(=O)c1cc(CCc2cnc(Nc3ccc(-n4cccn4)cc3)nc2)c(F)c(OC)c1 ): 9 nM

Recorded IC50 (compound CNC(=O)c1cc(CCc2cnc(Nc3cnn(CC4(C)COC4)c3)nc2)c(F)c(OC)c1 ): 8 nM

Recorded IC50 (compound CNC(=O)c1cc(CCc2cnc(Nc3cnn(C(C)C)c3)nc2)c(Cl)c(OC)c1 ): 6 nM

Recorded IC50 (compound CCN1CCN(c2ccc(Nc3ncc(CCc4cc(OC)cc(C(=O)NC)c4)cn3)cc2)CC1 ): 19 nM

Recorded IC50 (compound CNC(=O)c1cc(OC)c(F)c(COc2cnc(Nc3ccc(N4C[C@@H](C)N[C@@H](C)C4)cc3)nc2)c1F ): 7 nM
